Tested on: SK-MEL-2 melanoma
TEST: NCI-60 one-dose screen, 48 h (100 = growth as untreated, 0 = no growth, -100 = all killed)
CONDITION_LABEL: 10 µM unless noted
About 83,000 compounds went through this panel and 20% of them were active in at least one assay; those are over-represented in the sample as a whole.
ENDPOINT: growth (%)
Write it as a number; the unit % goes unstated.

INSERT INTO results (compound, target_system, quantity_unit, value) VALUES
  ('COc1cc(/C=N\NC(=O)CN2CCN(c3cc4c(cc3F)c(=O)c(C(=O)N/N=C/c3cc(OC)c(OC)c(OC)c3)cn4C3CC3)CC2)cc(OC)c1OC', 'SK-MEL-2 melanoma', '%', -26.2);

Input line: Report growth on SK-MEL-2 melanoma for this entry: C=COC(=O)CCCCCCCCC
Output line: 108

Input line: Report growth on SK-MEL-2 melanoma for this entry: CC(C)(C)NCCC(O)c1cc2c(Cl)cc(Cl)cc2c2cc(C(F)(F)F)ccc12 (stereo not given)
Output line: -69.5

----------
Test system: PC-3 prostate
TEST: NCI-60 one-dose screen, 48 h
CONDITION_LABEL: 10 µM unless noted
Compounds without any hit were thinned out: in the full panel of roughly 83,000, 20% have a hit. Active and inactive are the calls of the source. Rule for the calls: active = growth percent below 10; inactive = the rest.
Output constraint: value belongs to active, inactive

INSERT INTO assay_data (compound, class) VALUES
  ('C=C1C(=O)O[C@H]2[C@H]1CC/C(Cn1cc(CNC(=O)Cc3cn(C(=O)c4ccc(Cl)cc4)c4ccc(OC)cc34)nn1)=C\CC[C@@]1(C)O[C@@H]21', 'active'),
  ('Cc1csc(NC(c2ccccc2)c2c(C)nc3ccccn23)n1 (stereo unspecified)', 'inactive');

Input line: Identify the outcome logged in this assay for the compound shown: CCOC(=O)CC(=O)OC
Output line: inactive

Input line: Identify the outcome logged in this assay for the compound shown: CCOC(=O)C1CCNC(=O)C1=O (stereo unspecified)
Output line: inactive

Input line: Identify the outcome logged in this assay for the compound shown: Cn1ccc(=O)c(S(N)(=O)=O)c1
Output line: inactive

Input line: Identify the outcome logged in this assay for the compound shown: COc1ccc(C2C=C(c3ccc(OC)c(OC)c3)N=C3SC=C(C)N32)c(Br)c1 (stereo unspecified)
Output line: inactive

Input line: Identify the outcome logged in this assay for the compound shown: COc1ccc(-c2nc(SCCC(C)C)nc(Nc3ccc(F)c(Cl)c3)c2C#N)cc1
Output line: inactive

Input line: Identify the outcome logged in this assay for the compound shown: Cc1ccc(S(=O)(=O)Nc2c(Br)cc(Br)cc2C(N)=O)cc1
Output line: inactive

Input line: Identify the outcome logged in this assay for the compound shown: CC1CCC(C)N(C)C1 (stereo unspecified)
Output line: inactive

Input line: Identify the outcome logged in this assay for the compound shown: CN(C)CCCN(c1nc(C(Cl)(Cl)Cl)ns1)c1nc(C(Cl)(Cl)Cl)ns1
Output line: inactive

Input line: Identify the outcome logged in this assay for the compound shown: O=C(O)c1nc(-c2ccccc2)oc1N1CCOCC1
Output line: inactive

----------
Tested on: DU-145 prostate
TEST: NCI-60 one-dose screen, 48 h (100 = growth as untreated, 0 = no growth, -100 = all killed)
CONDITION_LABEL: 10 µM unless noted
This is part of a sample that, as a whole, favours compounds with a hit. Of some 83,000 tested, about 20% had one in any assay.
Recorded measurements of growth, one per entry
Write it as a number; the unit % goes unstated.

The cases that follow already have their growth on record.
INSERT INTO results (chemical_smiles, value) VALUES
  ('COc1ccc(-c2nc(/C=N/Nc3cc(C)nc4ccc(Cl)cc34)c(C)o2)cc1', -94.1),
  ('COc1cc(/C=N\NC(=O)CN2CCN(c3cc4c(cc3F)c(=O)c(C(=O)N/N=C/c3cc(OC)c(OC)c(OC)c3)cn4C3CC3)CC2)cc(OC)c1OC', 8.55),
  ('CN1CCN(CCCOc2ccc3nc(Nc4ccc(Cl)c(C(F)(F)F)c4)ccc3c2)CC1', 54.1),
  ('ClC(Cl)c1nc(-c2ccccc2)nc2cc(-c3ccccc3)nn12', 32.4),
  ('Cn1ccc(=O)c(S(N)(=O)=O)c1', 119);

Input line: Determine from records and report growth for COc1cc2c(cc1OCCCN1CCN(CCCn3c4ccccc4c4ccccc43)CC1)N=C[C@@H]1CCCN1C2=O
Output line: -85.9

Input line: Determine from records and report growth for O=S(=O)(NCCNc1nccc(-c2c(-c3ccc(O)cc3)nc3sccn23)n1)c1cccc2ccccc12
Output line: 115

Input line: Determine from records and report growth for O=C(Nc1cccc(-n2cc(-c3ccncc3)c(-c3ccc(Cl)c(O)c3)n2)c1)Nc1ccc(Cl)c(C(F)(F)F)c1
Output line: -17

Input line: Determine from records and report growth for Cc1ccc(CSC(=N)N)cc1C
Output line: 108
